Data provenance is PubChem BioAssay.

composite z-score overview
# test name: small-molecule binders of probe aInhba, primary screen, biochemical, small-molecule microarray, 635/667 nm fluorescence (AID 1148);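 note: score merges 667nm spot fluorescence with signal-to-noise for antibody binding to printed compounds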
# stated conditions: higher = more signal
# output: bare number, no unit

- compound: "CCOC(=O)C1=CCC(C(C)(C)C)N(S(=O)(=O)c2ccc(C)cc2)C1 (stereo not given)"
  readout kind: "composite z-score"
  assay value: -0.0933
- compound: "CC(C)OC(=O)CC(=O)CC(O)c1ccc(C#N)cc1 (stereo not given)"
  readout kind: "composite z-score"
  assay value: 0.0816
- compound: "COC(=O)[C@@]1(Cc2ccccc2)[C@H]2c3cc(C(=O)N(C)C)n(Cc4cc(C)n(C)n4)c3C[C@H]2CN1C(=O)c1ccccc1"
  readout kind: "composite z-score"
  assay value: 0.606

So for `O=C1O[C@H](c2ccccc2)[C@H](c2ccccc2)N2[C@H]1[C@@H](C(=O)Nc1nc3ccccc3s1)[C@]1(C(=O)Nc3ccccc31)[C@H]2c1ccc(O)cc1` , the logged composite z-score turned out to be -0.0736

Noted for `COCCOC(=O)N1C(=O)[C@@]2(c3ccccc31)[C@H](c1ccc(O)cc1)N1[C@H](c3ccccc3)[C@H](c3ccccc3)OC(=O)[C@H]1[C@@H]2C(=O)N1CCc2cc(OC)c(OC)cc2C1` : its composite z-score reads 0.223

Entry under test: CN1CCC(CCCO)=CC1c1ccc(CN2CCCC2)cc1 (stereo not given) . Its composite z-score was 0.0096

Data point: `O=C1c2ccccc2[C@@]2(Cc3ccccc3N(Cc3ccccc3)C2=O)[C@H](c2ccc(CO)cc2)N1C1CCCCC1` ; composite z-score = -0.0933

The reported composite z-score of the compound `COC(=O)[C@@]1(Cc2ccccc2)[C@H]2c3cc(C(=O)N4CCCC4)n(C)c3C[C@H]2CN1C(=O)c1ccccc1` was 0.271

Field composite z-score (entry `O=C(O)[C@@]1(Cc2ccccc2)N=C(c2ccc(OCCCO)cc2)O[C@H]1c1ccccc1` ) reads 0.166

Sure, the documented composite z-score for C=CCC(OC(C)=O)[C@@H]1[C@@H](N(Cc2ccc(-c3ccccc3)cc2)C(=O)Cc2ccc(F)cc2)c2cc(OCCCO)ccc2N1C(=O)c1ccc2ccccc2n1 (stereo not given in full) is 0.151

// composite z-score lookup, compound = `C=CC[C@]1(C(=O)N2CCOCC2)N=C(c2ccc(OCCCO)cc2)O[C@H]1c1ccccc1` , result: 0.0561

In plain terms, `CCCC[C@H]1OB(O)C[C@H]2C1=C(C)C[C@H]1C(=O)N(Cc3ccccc3)C(=O)[C@H]12` has a documented composite z-score of -0.122

Record summary for `COC(=O)C(CC#Cc1ccc2c(c1)[C@]1(C(=O)N2)[C@H](C(=O)NC[C@H](O)c2ccccc2)[C@H]2C(=O)O[C@H](c3ccccc3)[C@H](c3ccccc3)N2[C@@H]1c1ccc(OCCO)cc1)C(=O)OC` : reported composite z-score = 0.859

Record summary for CC(C)(C)N1CC=CC23O[C@@H]4/C=C\CCCOC(=O)C4[C@H]2C(=O)N(CCO)[C@@H]3C1=O (stereo not given in full) : reported composite z-score = -0.416

Lookup result for Cc1ccccc1C(O)C1C=CC2C(=O)N(C)C(=O)C2N1Nc1ccccc1 (stereo not given) ; measured composite z-score: 0.112
